B1: ZNF193 (parent)
chain: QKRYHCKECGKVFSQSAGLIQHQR

- Variants of: B1
- Run Description: protein stability index of a GFP-peptide fusion (GPS, HEK-293T) (PSI 1-6); higher = more stable;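 further: lentivirally expressed fusions sorted by FACS into six bins by GFP to DsRed ratio, PSI derived from sequencing read proportions per bin multiplied by bin number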
- Protocol Conditions: c terminus: a fixed tail appended
Assignment: determine reported protein stability index for the given variants.
Give the figure only, with no unit attached.

For G10F , what is its reported protein stability index?
2.03

For K11N , what is its reported protein stability index?
1.66

For K7M , what is its reported protein stability index?
2.6

For C6F , what is its reported protein stability index?
2.08

For G18C , what is its reported protein stability index?
2.7

For E8K , what is its reported protein stability index?
3.5

For G10T , what is its reported protein stability index?
1.83

For C9K , what is its reported protein stability index?
3.64

For L19G , what is its reported protein stability index?
2.37

For G18N , what is its reported protein stability index?
2.32

For C6S , what is its reported protein stability index?
2.88

For Q1Y , what is its reported protein stability index?
2.2

For A17E , what is its reported protein stability index?
3.51

For S14C , what is its reported protein stability index?
2.58

For S14K , what is its reported protein stability index?
3.23

For G10R , what is its reported protein stability index?
2

For R24G , what is its reported protein stability index?
3.05

For H22D , what is its reported protein stability index?
2.1

For R24W , what is its reported protein stability index?
2.1

For Q23A , what is its reported protein stability index?
2.5

For C9W , what is its reported protein stability index?
2.58

For Q23K , what is its reported protein stability index?
3.36

For K11R , what is its reported protein stability index?
2.01

For Y4Q , what is its reported protein stability index?
2.42

For K11Q , what is its reported protein stability index?
3.04

For L19F , what is its reported protein stability index?
2.43

For K2A , what is its reported protein stability index?
2.85

For Q21G , what is its reported protein stability index?
2.67

For S14V , what is its reported protein stability index?
2.53

For Q21Y , what is its reported protein stability index?
2.21

For V12Y , what is its reported protein stability index?
2.75

For Q15S , what is its reported protein stability index?
4.11

For K11T , what is its reported protein stability index?
2.64

For C9A , what is its reported protein stability index?
3.45

For K11Y , what is its reported protein stability index?
1.7

For L19T , what is its reported protein stability index?
1.94

For V12W , what is its reported protein stability index?
2.82

For S14F , what is its reported protein stability index?
2.68

For C9P , what is its reported protein stability index?
3.04

For V12R , what is its reported protein stability index?
3.33

For Q15D , what is its reported protein stability index?
4.51

For C9V , what is its reported protein stability index?
3.07

For H5P , what is its reported protein stability index?
3.1

For A17S , what is its reported protein stability index?
3.02

For R24T , what is its reported protein stability index?
2.33

For G18K , what is its reported protein stability index?
2.8

For R24P , what is its reported protein stability index?
2.44

For K7Y , what is its reported protein stability index?
3.1

For C9R , what is its reported protein stability index?
3.38

For G18Y , what is its reported protein stability index?
2.31

For G18A , what is its reported protein stability index?
3.12

For F13V , what is its reported protein stability index?
2.05

For K2N , what is its reported protein stability index?
2.86

For G18L , what is its reported protein stability index?
3.01

For F13Q , what is its reported protein stability index?
2.29

For Q23G , what is its reported protein stability index?
2.07

For G18P , what is its reported protein stability index?
2.29

For Q1I , what is its reported protein stability index?
3.03

For Y4G , what is its reported protein stability index?
2.14

For S16L , what is its reported protein stability index?
3.59

For C6L , what is its reported protein stability index?
2.31

For Y4N , what is its reported protein stability index?
2.39

For Q21I , what is its reported protein stability index?
2.1

For K2P , what is its reported protein stability index?
3.07

For Q1M , what is its reported protein stability index?
2.45

For G10W , what is its reported protein stability index?
2.02

For H5R , what is its reported protein stability index?
3.9

For C9Y , what is its reported protein stability index?
2.7

For Q21V , what is its reported protein stability index?
2.37

For Q23I , what is its reported protein stability index?
2.57

For V12N , what is its reported protein stability index?
2.78

For V12P , what is its reported protein stability index?
2.17

For C9N , what is its reported protein stability index?
3.17

For Q1N , what is its reported protein stability index?
2.32

For C6G , what is its reported protein stability index?
2.62

For Q23T , what is its reported protein stability index?
2.51

For Q15L , what is its reported protein stability index?
1.99
